This document collects pIC50 values reported for human ACC2 (Homo sapiens (Human), UniProt O00763).
pIC50: −log10 of the molar value.
ATTRIBUTE MEASURED: pIC50

COMPOUND | ATTRIBUTE MEASURED | ENDPOINT VALUE
C[C@H](NC(=O)C1(C)CC1)c1ccc(C2CN(c3ccc(OCC4CC4)cc3)C2)cc1 | pIC50 | 5.62
COc1ccc(-c2cnc(N3CC(c4ccc([C@H](C)NC(C)=O)cc4)C3)nc2)cc1 | pIC50 | 6.49
CC(=O)NC(C)Cc1ccc(C2CN(c3ccc4ncccc4c3)C2)cc1 (centres unmarked) | pIC50 | 5.09
C[C@H](NC(=O)C1CCCCO1)c1ccc(C2CN(c3ccc(OCC4CC4)cc3)C2)cc1 (some centres unmarked) | pIC50 | 5.54
CC(=O)NC(C)Cc1ccc(C2CN(c3ccc(-c4ccc(Cl)cc4)nn3)C2)cc1 (centres unmarked) | pIC50 | 5.15
CC(=O)NCCCC(=O)N[C@@H](C)c1ccc(C2CN(c3ccc(OCC4CC4)cc3)C2)cc1 | pIC50 | 5.68
C#CCCC(=O)N[C@@H](C)c1ccc(C2CN(c3ccc(OCC4CC4)cc3)C2)cc1 | pIC50 | 5.62
CC(=O)N[C@@H](C)c1ccc(C2CN(c3ncc(OCC4CC4(F)F)cn3)C2)cc1 (some centres unmarked) | pIC50 | 6.74
